- Tested on: SK-OV-3
- test.summary: Cytotoxicity against human SKOV3 cells upto 50 uM by neutral red assay
- Assay type: functional, cell-based
Active and inactive are the calls of the source. The rule behind the calls is not given here.
reported.endpoint: Activity

• COc1c(O)cc2c(c1O)C(=O)C[C@@H](c1ccccc1)O2 [DIHYDROOROXYLIN A] = inactive
• C/C=C(/C)C(=O)O[C@H]1C(=O)c2cc3ccc(=O)oc3cc2OC1(C)C [SCUTEFLORIN B] = inactive
• CC1(C)CC[C@]2(C(=O)O)CC[C@]3(C)C(=CC[C@@H]4[C@@]5(C)CC[C@@H](O)[C@](C)(CO)[C@@H]5CC[C@]43C)[C@@H]2C1 [SCUTELLARIC ACID] = inactive
• O=c1cc(-c2ccccc2)oc2cc(O)cc(O)c12 [CHRYSIN] = inactive
• C=C(C)[C@@H]1CC[C@]2(C)CC[C@]3(C)[C@H](CC[C@@H]4[C@@]5(C)CC[C@H](O)C(C)(C)[C@@H]5CC[C@]43C)[C@@H]12 [LUPEOL] = inactive
• CC(C)=CC(=O)O[C@H]1C(=O)c2cc3ccc(=O)oc3cc2OC1(C)C [SCUTEFLORIN A] = inactive
• CC[C@H](CC[C@@H](C)[C@H]1CC[C@H]2[C@@H]3CC=C4C[C@@H](O)CC[C@]4(C)[C@H]3CC[C@]12C)C(C)C [BETA-SITOSTEROL] = inactive

###

- Tested on: Vero
- test.summary: Cytotoxicity against african green monkey Vero cells upto 50 uM by neutral red assay
- Format: cell-based
- test.context: chlorocebus sabaeus
reported.endpoint: Activity

- COc1c(O)cc2oc(-c3ccccc3)cc(=O)c2c1O: Non-toxic
- C=C(C)[C@@H]1CC[C@]2(C)CC[C@]3(C)[C@H](CC[C@@H]4[C@@]5(C)CC[C@H](O)C(C)(C)[C@@H]5CC[C@]43C)[C@@H]12: Non-toxic
- CC[C@H](CC[C@@H](C)[C@H]1CC[C@H]2[C@@H]3CC=C4C[C@@H](O[C@@H]5O[C@H](CO)[C@@H](O)[C@H](O)[C@H]5O)CC[C@]4(C)[C@H]3CC[C@]12C)C(C)C [SITOGLUSIDE]: Non-toxic
- C/C=C(/C)C(=O)O[C@H]1C(=O)c2cc3ccc(=O)oc3cc2OC1(C)C: Non-toxic
- CC(C)=CC(=O)O[C@H]1C(=O)c2cc3ccc(=O)oc3cc2OC1(C)C: Non-toxic
- O=C1C[C@@H](c2ccccc2)Oc2cc(O)cc(O)c21: Non-toxic
- CC(C)=CC(=O)O[C@H]1Cc2cc3ccc(=O)oc3cc2OC1(C)C: Non-toxic

###

- System: BT-549
- test.summary: Cytotoxicity against human BT549 cells upto 50 uM by neutral red assay
- Format: functional, cell-based
The source made the active and inactive calls. The calls are words filed in the database; no cut-off is given here.
reported.endpoint: Activity

* COc1c(O)cc2c(c1O)C(=O)C[C@@H](c1ccccc1)O2 [DIHYDROOROXYLIN A] | inactive
* CCCCCCCCCCCCCCCC(=O)O [PALMITIC ACID] | inactive
* CC(C)=CC(=O)O[C@H]1Cc2cc3ccc(=O)oc3cc2OC1(C)C [DECURSIN] | inactive
* C/C=C(/C)C(=O)O[C@H]1C(=O)c2cc3ccc(=O)oc3cc2OC1(C)C [SCUTEFLORIN B] | inactive
* COc1c(O)cc(O)c2c(=O)cc(-c3ccccc3)oc12 [WOGONIN] | inactive
* O=C1C[C@@H](c2ccccc2)Oc2cc(O)cc(O)c21 [PINOCEMBRIN] | inactive
* C[C@@H]1CC[C@]2(C(=O)O)CC[C@]3(C)C(=CC[C@@H]4[C@@]5(C)CC[C@H](O)C(C)(C)[C@@H]5CC[C@]43C)[C@@H]2[C@]1(C)O [POMOLIC ACID] | inactive
* COc1ccccc1-c1cc(=O)c2c(O)cc(O)c(OC)c2o1 | inactive
* COc1c(O)cc2oc(-c3ccccc3)cc(=O)c2c1O [OROXYLIN A] | inactive

###

- assay.system: Transcription factor Sp1 (Homo sapiens)
- test.summary: Inhibition of SP1-dependent luciferase expression
Calls of active or inactive are those of the source. The calls are words filed in the database; no cut-off is given here.
reported.endpoint: Activity

• CC[C@H](CC[C@@H](C)[C@H]1CC[C@H]2[C@@H]3CC=C4C[C@@H](O)CC[C@]4(C)[C@H]3CC[C@]12C)C(C)C = inactive
• C[C@@H]1CC[C@]2(C(=O)O)CC[C@]3(C)C(=CC[C@@H]4[C@@]5(C)CC[C@H](O)C(C)(C)[C@@H]5CC[C@]43C)[C@@H]2[C@]1(C)O = inactive
• O=c1cc(-c2ccccc2)oc2cc(O)cc(O)c12 = inactive

###

- Tested on: SW1353
- test.summary: Antiinflammatory activity in PMA-stimulated human SW1353 cells assessed as inhibition of NF-kappaB activation
- Type: functional, cell-based
Parameter IC50: see the listing below.
reported.endpoint: IC50 (µM)

* C=C1C(=O)O[C@@H]2C3O[C@]3(C)CC/C=C(\C)CC[C@@H]12 (some centres undefined) | 4.1
* O=c1cc(-c2ccccc2)oc2cc(O)cc(O)c12 | 33
* COc1c(O)cc(O)c2c(=O)cc(-c3ccccc3)oc12 | 39
